The reported measurements were obtained from patent US11053204B2.

test system: oilseed rape (Brassica napus); assay: Test C postemergence, plant response rating; format: in vivo; settings: 62 g ai/ha, scale 0 to 100 (0 no effect, 100 complete control)
Reported Oilseed Rape plant response rating values for the following molecules.

>>> result("FC(F)(F)CCCCc1c(Cl)cccc1Oc1ncc(Cl)cn1 [Compound 137]")
90
>>> result("N#Cc1cccc(Oc2ncc(Cl)cn2)c1COCCC(F)(F)F [Compound 80]")
65
>>> result("FC(F)(F)CCCCc1c(Br)cccc1Oc1ncc(Cl)cn1 [Compound 138]")
95
>>> result("O=C(OCC(F)(F)F)c1c(Br)cccc1Oc1ncc(Cl)cn1 [Compound 35]")
50

Q: // returns reported Oilseed Rape plant response rating for input N#CCCOC(=O)c1c(Br)cccc1Oc1ncc(Cl)cn1 [Compound 7]
Ans: 0
